Cited source: patent US10406146B2

biological target: HDAC6 enzyme (Homo sapiens); construct: transducing full length HDAC1 and HDAC6 genes into Sf-9 insect cells; GST; purchased SignalChem; host or cells: Sf-9 insect cells; assay: HDAC6 enzyme inhibitory assay (HDAC-Glo I/II Assay kit); type: biochemical; conditions: wells without enzyme = 100% inhibition
Sequence (Q9UBN7 whole entry): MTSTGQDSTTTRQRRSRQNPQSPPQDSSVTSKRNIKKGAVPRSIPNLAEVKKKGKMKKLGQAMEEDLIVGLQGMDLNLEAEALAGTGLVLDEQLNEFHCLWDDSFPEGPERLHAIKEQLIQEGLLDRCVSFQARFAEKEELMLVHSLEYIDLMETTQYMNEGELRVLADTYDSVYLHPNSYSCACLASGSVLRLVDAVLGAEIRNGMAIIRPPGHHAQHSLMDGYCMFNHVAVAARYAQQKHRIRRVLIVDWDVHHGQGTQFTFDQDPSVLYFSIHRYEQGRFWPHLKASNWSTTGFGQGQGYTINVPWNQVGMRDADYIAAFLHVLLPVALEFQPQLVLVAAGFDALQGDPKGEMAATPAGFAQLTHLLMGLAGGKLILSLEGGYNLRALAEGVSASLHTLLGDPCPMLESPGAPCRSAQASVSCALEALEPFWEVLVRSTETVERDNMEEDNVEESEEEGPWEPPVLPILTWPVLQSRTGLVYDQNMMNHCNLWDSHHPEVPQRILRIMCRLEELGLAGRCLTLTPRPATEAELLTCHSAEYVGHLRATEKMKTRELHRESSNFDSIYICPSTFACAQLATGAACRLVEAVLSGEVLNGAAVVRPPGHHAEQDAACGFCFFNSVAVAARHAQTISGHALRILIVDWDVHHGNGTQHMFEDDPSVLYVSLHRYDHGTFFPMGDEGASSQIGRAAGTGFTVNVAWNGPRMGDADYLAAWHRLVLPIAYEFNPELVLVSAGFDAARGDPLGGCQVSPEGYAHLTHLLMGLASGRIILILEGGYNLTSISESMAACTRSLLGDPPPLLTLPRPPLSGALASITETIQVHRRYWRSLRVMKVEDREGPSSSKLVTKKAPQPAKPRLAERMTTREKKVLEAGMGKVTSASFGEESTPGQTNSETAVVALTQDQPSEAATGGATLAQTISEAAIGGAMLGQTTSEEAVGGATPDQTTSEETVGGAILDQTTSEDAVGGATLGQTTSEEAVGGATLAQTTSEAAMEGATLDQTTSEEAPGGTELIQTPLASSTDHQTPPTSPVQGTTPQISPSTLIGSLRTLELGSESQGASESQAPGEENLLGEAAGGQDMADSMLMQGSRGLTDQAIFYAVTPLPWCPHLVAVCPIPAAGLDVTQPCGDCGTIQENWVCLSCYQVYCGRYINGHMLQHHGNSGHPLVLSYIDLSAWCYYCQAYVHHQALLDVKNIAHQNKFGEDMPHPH
Value type: HDAC6 inhibitory rate (%) (1 μM)
Numbers only here, please. The scale is %.

What value of HDAC6 inhibitory rate (%) (1 μM) has been recorded for this entry: O=C(NCC1CCCCN1C(=O)Nc1ccc(-c2noc(C(F)(F)F)n2)cc1)C1CCCCC1 (stereo not drawn)
7

What value of HDAC6 inhibitory rate (%) (1 μM) has been recorded for this entry: CC(=O)N1CCC(C(=O)NCC2CCCCN2C(=O)Nc2ccc(-c3noc(C(F)(F)F)n3)cc2)CC1 (stereo not drawn)
7

What value of HDAC6 inhibitory rate (%) (1 μM) has been recorded for this entry: O=C(NCC1CCCCN1C(=O)Nc1ccc(-c2noc(C(F)(F)F)n2)cc1)c1ccnc(O)c1 (stereo not drawn)
3

What value of HDAC6 inhibitory rate (%) (1 μM) has been recorded for this entry: O=C(NCC1CCCCN1C(=O)Nc1ccc(-c2noc(C(F)(F)F)n2)cc1)c1ccc(Cl)cc1Cl (stereo not drawn)
−1

What value of HDAC6 inhibitory rate (%) (1 μM) has been recorded for this entry: CC(C)(C)OC(=O)NCC1CCCCN1C(=O)Nc1ccc(-c2noc(C(F)(F)F)n2)cc1 (stereo not drawn)
5

What value of HDAC6 inhibitory rate (%) (1 μM) has been recorded for this entry: COc1ccccc1C(=O)NCC1CCCCN1C(=O)Nc1ccc(-c2noc(C(F)(F)F)n2)cc1 (stereo not drawn)
4

* * *

For each entry below, report its inhibition at 1 µM value.
molecular target: HDAC6 enzyme (Homo sapiens); construct: transducing full length HDAC1 and HDAC6 genes into Sf-9 insect cells; GST; purchased SignalChem; host or cells: Sf-9 insect cells; assay: HDAC6 enzyme inhibitory assay (HDAC-Glo I/II Assay kit); assay type: biochemical; conditions: wells without enzyme = 100% inhibition, read-out: HDAC6 inhibitory rate (%) (1 μM)
Numbers only here, please. The scale is %.

What value of inhibition at 1 µM has been recorded for this entry: O=C(NCC1CCCCN1C(=O)Nc1ccc(-c2noc(C(F)(F)F)n2)cc1)c1cccc(O)c1 (stereo not shown)
2

What value of inhibition at 1 µM has been recorded for this entry: Cc1ccnc(C(=O)NCC2CCCCN2C(=O)Nc2ccc(-c3noc(C(F)(F)F)n3)cc2)c1 (stereo not shown)
4

What value of inhibition at 1 µM has been recorded for this entry: O=C(NCC1CCCCN1C(=O)Nc1ccc(-c2noc(C(F)(F)F)n2)cc1)c1ccc(O)cc1 (stereo not shown)
3

What value of inhibition at 1 µM has been recorded for this entry: O=C(NCC1CCCCN1C(=O)Nc1ccc(-c2noc(C(F)(F)F)n2)cc1)c1ccccc1 (stereo not shown)
10

* * *

For each entry below, report its inhibition at 1 µM value.
target: HDAC9 enzyme (Homo sapiens); construct: transducing full length HDAC9 gene into Sf-9 insect cells; made in house; host or cells: Sf-9 insect cells; experiment: HDAC9 enzyme inhibitory assay (HDAC-Glo class IIa); type: biochemical; details: wells without enzyme = 100% inhibition, read-out: HDAC9 inhibitory rate (%) (1 μM)
Sequence (Q9UKV0 whole entry, species assumed): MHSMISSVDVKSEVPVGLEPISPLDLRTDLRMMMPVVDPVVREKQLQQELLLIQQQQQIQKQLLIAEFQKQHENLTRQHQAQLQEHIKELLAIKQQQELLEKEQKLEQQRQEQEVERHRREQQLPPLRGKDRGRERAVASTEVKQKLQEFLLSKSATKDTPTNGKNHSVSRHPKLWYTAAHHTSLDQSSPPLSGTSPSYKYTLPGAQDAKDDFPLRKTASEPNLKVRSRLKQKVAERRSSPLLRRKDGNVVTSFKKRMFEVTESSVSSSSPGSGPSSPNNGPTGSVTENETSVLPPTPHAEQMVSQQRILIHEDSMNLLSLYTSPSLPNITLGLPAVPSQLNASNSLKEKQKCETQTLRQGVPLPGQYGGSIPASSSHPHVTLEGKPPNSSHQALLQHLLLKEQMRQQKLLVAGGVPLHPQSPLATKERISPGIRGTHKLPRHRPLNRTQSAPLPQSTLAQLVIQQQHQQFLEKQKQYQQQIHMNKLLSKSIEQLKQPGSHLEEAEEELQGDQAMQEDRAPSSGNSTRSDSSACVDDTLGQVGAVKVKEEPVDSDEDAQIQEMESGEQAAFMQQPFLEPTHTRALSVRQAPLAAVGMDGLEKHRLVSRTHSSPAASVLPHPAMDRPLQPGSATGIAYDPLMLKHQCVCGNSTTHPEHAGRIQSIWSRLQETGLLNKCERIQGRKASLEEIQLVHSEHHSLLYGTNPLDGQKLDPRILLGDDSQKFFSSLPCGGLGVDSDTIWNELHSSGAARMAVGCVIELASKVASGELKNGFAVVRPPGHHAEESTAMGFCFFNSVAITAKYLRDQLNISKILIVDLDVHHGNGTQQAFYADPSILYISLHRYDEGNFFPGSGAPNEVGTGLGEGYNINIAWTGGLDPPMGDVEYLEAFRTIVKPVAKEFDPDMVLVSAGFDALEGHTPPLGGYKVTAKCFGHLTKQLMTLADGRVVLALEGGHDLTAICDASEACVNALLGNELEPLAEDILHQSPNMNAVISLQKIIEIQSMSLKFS

What value of inhibition at 1 µM has been recorded for this entry: O=C(NCC1CCCCN1C(=O)Nc1ccc(-c2noc(C(F)(F)F)n2)cc1)c1ccc(Cl)c(Cl)c1 (stereo not drawn)
62%

What value of inhibition at 1 µM has been recorded for this entry: O=C(NCC1CCCCN1C(=O)Nc1ccc(-c2noc(C(F)(F)F)n2)cc1)C1CC1 (stereo not drawn)
92%

What value of inhibition at 1 µM has been recorded for this entry: O=C(CCc1ccccc1)NCC1CCCCN1C(=O)Nc1ccc(-c2noc(C(F)(F)F)n2)cc1 (stereo not drawn)
89%

What value of inhibition at 1 µM has been recorded for this entry: NC(=O)c1ccc(C(=O)NCC2CCCCN2C(=O)Nc2ccc(-c3noc(C(F)(F)F)n3)cc2)cc1 (stereo not drawn)
90%

What value of inhibition at 1 µM has been recorded for this entry: Cc1ccc(C(=O)NCC2CCCCN2C(=O)Nc2ccc(-c3noc(C(F)(F)F)n3)cc2)cc1 (stereo not drawn)
67%

What value of inhibition at 1 µM has been recorded for this entry: Cn1nc(C(=O)NCC2CCCCN2C(=O)Nc2ccc(-c3noc(C(F)(F)F)n3)cc2)cc1C(F)(F)F (stereo not drawn)
63%

What value of inhibition at 1 µM has been recorded for this entry: Cc1cccc(C(=O)NCC2CCCCN2C(=O)Nc2ccc(-c3noc(C(F)(F)F)n3)cc2)n1 (stereo not drawn)
85%

What value of inhibition at 1 µM has been recorded for this entry: O=C(NCC1CCCCN1C(=O)Nc1ccc(-c2noc(C(F)(F)F)n2)cc1)c1ccccc1-c1ccccc1 (stereo not drawn)
82%

What value of inhibition at 1 µM has been recorded for this entry: O=C(NCC1CCCCN1C(=O)Nc1ccc(-c2noc(C(F)(F)F)n2)cc1)c1ccccc1 (stereo not drawn)
90%

What value of inhibition at 1 µM has been recorded for this entry: O=C(NCC1CCCCN1C(=O)Nc1ccc(-c2noc(C(F)(F)F)n2)cc1)c1cccnc1 (stereo not drawn)
96%

What value of inhibition at 1 µM has been recorded for this entry: O=C(NCC1CCCCN1C(=O)Nc1ccc(-c2noc(C(F)(F)F)n2)cc1)c1ccncc1 (stereo not drawn)
97%

What value of inhibition at 1 µM has been recorded for this entry: Cn1nccc1C(=O)NCC1COCCN1C(=O)Nc1ccc(-c2noc(C(F)(F)F)n2)cc1 (stereo not drawn)
98%

What value of inhibition at 1 µM has been recorded for this entry: Cn1ccnc1C(=O)NCC1CCCCN1C(=O)Nc1ccc(-c2noc(C(F)(F)F)n2)cc1 (stereo not drawn)
90%

What value of inhibition at 1 µM has been recorded for this entry: O=C(NCC1CCCCN1C(=O)Nc1ccc(-c2noc(C(F)(F)F)n2)cc1)c1ccc(-c2ccccc2)cc1 (stereo not drawn)
40%

What value of inhibition at 1 µM has been recorded for this entry: N#Cc1ccc(C(=O)NCC2CCCCN2C(=O)Nc2ccc(-c3noc(C(F)(F)F)n3)cc2)cc1 (stereo not drawn)
94%

What value of inhibition at 1 µM has been recorded for this entry: CC(=O)NCC1CCCCN1C(=O)Nc1ccc(-c2noc(C(F)(F)F)n2)cc1 (stereo not drawn)
88%

What value of inhibition at 1 µM has been recorded for this entry: O=C(NCC1CCCCN1C(=O)Nc1ccc(-c2noc(C(F)(F)F)n2)cc1)c1cccc(Cl)c1 (stereo not drawn)
68%

What value of inhibition at 1 µM has been recorded for this entry: O=C(NCC1CCCCN1C(=O)Nc1ccc(-c2noc(C(F)(F)F)n2)cc1)c1cccc(Cl)c1Cl (stereo not drawn)
70%

What value of inhibition at 1 µM has been recorded for this entry: `Cn1nccc1C(=O)NC[C@@H]1COCCN1C(=O)Nc1ccc(-c2noc(C(F)(F)F)n2)cc1`
99%

What value of inhibition at 1 µM has been recorded for this entry: CN(C)c1ccc(C(=O)NCC2CCCCN2C(=O)Nc2ccc(-c3noc(C(F)(F)F)n3)cc2)cc1 (stereo not drawn)
88%

What value of inhibition at 1 µM has been recorded for this entry: O=C(NCC1CCCCN1C(=O)Nc1ccc(-c2noc(C(F)(F)F)n2)cc1)c1ccc(C(F)(F)F)cc1 (stereo not drawn)
39%

What value of inhibition at 1 µM has been recorded for this entry: O=C(NCC1CCCCN1C(=O)Nc1ccc(-c2noc(C(F)(F)F)n2)cc1)c1cc(Cl)cc(Cl)c1 (stereo not drawn)
48%

What value of inhibition at 1 µM has been recorded for this entry: O=C(NCC1CCCCN1C(=O)Nc1ccc(-c2noc(C(F)(F)F)n2)cc1)c1ccccc1Cl (stereo not drawn)
52%

What value of inhibition at 1 µM has been recorded for this entry: Cn1nc(C(=O)NCC2CCCCN2C(=O)Nc2ccc(-c3noc(C(F)(F)F)n3)cc2)c2ccccc21 (stereo not drawn)
71%

What value of inhibition at 1 µM has been recorded for this entry: Cc1ccccc1C(=O)NCC1CCCCN1C(=O)Nc1ccc(-c2noc(C(F)(F)F)n2)cc1 (stereo not drawn)
84%

What value of inhibition at 1 µM has been recorded for this entry: O=C(NCC1CCCCN1C(=O)Nc1ccc(-c2noc(C(F)(F)F)n2)cc1)c1ccc(Cl)cc1 (stereo not drawn)
94%

What value of inhibition at 1 µM has been recorded for this entry: COc1cccc(C(=O)NCC2CCCCN2C(=O)Nc2ccc(-c3noc(C(F)(F)F)n3)cc2)c1 (stereo not drawn)
88%

* * *

Target: HDAC1 enzyme (Homo sapiens)
Construct: transducing full length HDAC1 and HDAC6 genes into Sf-9 insect cells; GST; purchased SignalChem; host or cells: Sf-9 insect cells
Sequence (Q13547 whole entry): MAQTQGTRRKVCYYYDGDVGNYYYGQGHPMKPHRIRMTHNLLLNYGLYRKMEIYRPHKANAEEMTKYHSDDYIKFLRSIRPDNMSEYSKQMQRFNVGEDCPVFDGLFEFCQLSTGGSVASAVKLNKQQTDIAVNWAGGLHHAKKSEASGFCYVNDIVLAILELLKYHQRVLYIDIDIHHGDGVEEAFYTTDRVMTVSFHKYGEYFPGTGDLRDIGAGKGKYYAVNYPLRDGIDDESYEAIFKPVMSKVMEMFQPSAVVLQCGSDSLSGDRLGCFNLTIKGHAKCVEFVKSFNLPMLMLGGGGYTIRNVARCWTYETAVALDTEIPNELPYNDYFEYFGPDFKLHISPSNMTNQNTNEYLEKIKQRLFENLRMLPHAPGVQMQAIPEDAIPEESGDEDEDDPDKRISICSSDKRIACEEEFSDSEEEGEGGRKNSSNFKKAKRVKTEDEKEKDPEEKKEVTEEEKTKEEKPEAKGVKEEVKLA
Assay: HDAC1 enzyme inhibitory assay (HDAC-Glo I/II Assay kit)
Format: biochemical
Conditions: wells without enzyme = 100% inhibition
Description: HDAC1/6 Enzyme Inhibitory Assay HDAC1 enzyme and HDAC6 enzyme each prepared by transducing full length HDAC1 and HDAC6 genes into Sf-9 insect cells and purifying by GST affinity column were purchased from SignalChem. Using these enzymes, HDAC1 and/or HDAC6 enzyme inhibitory activities of the compound of the present invention were evaluated. […] After reacting at room temperature for 20 min, luminescence level was measured using plate reader Envision (PerkinElmer). […]
Value type: HDAC1 inhibitory rate (%) (1 μM)
Numbers only here, please. The scale is %.

What value of HDAC1 inhibitory rate (%) (1 μM) has been recorded for this entry: O=C(NCC1CCCCN1C(=O)Nc1ccc(-c2noc(C(F)(F)F)n2)cc1)c1ccc(Cl)cc1Cl (stereo not drawn)
−12

What value of HDAC1 inhibitory rate (%) (1 μM) has been recorded for this entry: CC(=O)N1CCC(C(=O)NCC2CCCCN2C(=O)Nc2ccc(-c3noc(C(F)(F)F)n3)cc2)CC1 (stereo not drawn)
32

What value of HDAC1 inhibitory rate (%) (1 μM) has been recorded for this entry: COc1ccccc1C(=O)NCC1CCCCN1C(=O)Nc1ccc(-c2noc(C(F)(F)F)n2)cc1 (stereo not drawn)
41

What value of HDAC1 inhibitory rate (%) (1 μM) has been recorded for this entry: CC(C)(C)OC(=O)NCC1CCCCN1C(=O)Nc1ccc(-c2noc(C(F)(F)F)n2)cc1 (stereo not drawn)
51

What value of HDAC1 inhibitory rate (%) (1 μM) has been recorded for this entry: O=C(NCC1CCCCN1C(=O)Nc1ccc(-c2noc(C(F)(F)F)n2)cc1)c1ccnc(O)c1 (stereo not drawn)
25

What value of HDAC1 inhibitory rate (%) (1 μM) has been recorded for this entry: O=C(NCC1CCCCN1C(=O)Nc1ccc(-c2noc(C(F)(F)F)n2)cc1)C1CCCCC1 (stereo not drawn)
79
